- test_name: Inhibition of Ribosomal protein S6 kinase
assay_metric: IC50 (nM)

compound_structure_string=CO[C@H]1[C@@H](N(C)C(=O)OC(C)(C)C)C[C@@H]2O[C@@]1(C)n1c3ccccc3c3c4c(c5c6ccccc6n2c5c31)C(=O)NC4 assay_metric=IC50 measured_number=1000
compound_structure_string=CO[C@H]1[C@@H](N(C)C(=O)c2cccc([N+](=O)[O-])c2)C[C@@H]2O[C@@]1(C)n1c3ccccc3c3c4c(c5c6ccccc6n2c5c31)C(=O)NC4 assay_metric=IC50 measured_number=100
compound_structure_string=CO[C@H]1[C@@H](N(C)C(=O)CNC(=O)OC(C)(C)C)C[C@@H]2O[C@@]1(C)n1c3ccccc3c3c4c(c5c6ccccc6n2c5c31)C(=O)NC4 assay_metric=IC50 measured_number=200
compound_structure_string=CNC(=S)N(C)[C@H]1C[C@@H]2O[C@](C)([C@H]1OC)n1c3ccccc3c3c4c(c5c6ccccc6n2c5c31)C(=O)NC4 assay_metric=IC50 measured_number=900
